# credit: the domain aggregation screens of Martell et al. (2025)

- Assay Notes: soluble fraction after stress (log2 fold change); higher = more stays soluble; pooled small domains, quantitative proteomics;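 further: 20 min heating vs room temperature control held 20 min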
- Applied Conditions: stress: 75 degC
Recorded soluble fraction (log2) by entry
Experimental Readout: soluble fraction (log2)

# Sequence Record, Recorded Measurement
rows = [
    ("HMKELLQEMIMDILRAIASPNIDIKRKTLDLVLDLITPRNIDNVTGMLKTEVVKSQSENTSDVG", -1.58),
    ("HMGDDVRKNILDVLSKFERVDITDLDSLELVRFYLEIEDIFDIEIKENDFYRLKSVDSIVDYIRNKSFF", -1.31),
    ("HMSDKLTLPVQINGVFRYTIEINPSMQKDEIIDLVKNEERTAKYKQDKEIKNVIVVPGKIVNIII", -0.339),
    ("HMTPFLVRVDISDLNIRTGAGTNYSRTGQYTGKGIFTILEVKSGQGSDAGWGRLKSGAGWISLDYTTR", -2.84),
]

* * *

- Assay Notes: soluble fraction after stress (log2 fold change); higher = more stays soluble; pooled small domains, quantitative proteomics
- Applied Conditions: stress: 75 degC
Experimental Readout: soluble fraction (log2)

# Sequence Record, Experimental Readout, Recorded Measurement
rows = [
    ("HMEDIPENIRYKFLLKELKENEHLNILDKENIARKLTEIDLPELEKELLENEILNSTIKDYLGIKLV", "soluble fraction (log2)", 0.494),
    ("HMHKIRRQTKITKSLLDQIEGIGSSRKKALLNHFGSAKAVGEAGETDLGTVKGISNSLAKKIYDFFHAT", "soluble fraction (log2)", -0.545),
    ("HMKILKQLEAIIEKEGLNESAKQFYLREISELDKEKQQEIINLVDKMEQAGFKNNLASAFSEVTEDIPQF", "soluble fraction (log2)", -0.138),
    ("HMQKTVLAASVYERMKERIMDQYYPPGERLNIDALAIDLAVSPTPIREALARLAAERLITFEAYKGYRVSP", "soluble fraction (log2)", -3.38),
]

* * *

- Assay Notes: soluble fraction after stress (log2 fold change); higher = more stays soluble; pooled small domains, quantitative proteomics
- Applied Conditions: stress: 75 degC
The label depends only on soluble fraction (log2): met if it is at least -0.06, not met if it is smaller.

# Sequence Record, Group
records = [
    ("HMTSSKISFIDPVNGGKVSVSLENSTLEKLQNRFGVNSVVRNEAGDVELKDKAQEFVAGWFADIAYTRG", "met"),
    ("HMEAGLRMPEQLTAFSALALLQKVRDSGPLTDAQKEQLDADVLRIEASHFGKADREALELEEILKQWLSRV", "met"),
    ("HMGKHYLLKDDNGTITIYKILEDGTQEVYEKTEISTTYLPQTDNIGIKQGIRVNGDEALNELIENF", "not met"),
    ("HMGQEEKDIFLKLINISGIGPKLALNILSGIEASELEEAVRNTNVTRLSMVPGIGQKTALRIIMELSDKLE", "not met"),
    ("HMPMDDETWDALSLFAYKRYARENGWPLMIGAEALRDTFASYFPLDSSTWQDRSSHYLTYQDGIYTRT", "not met"),
    ("HMQASTGNVNTETLNLRKEASTSADILKLLSQGDEVEIVSESNGWYKVKYKDTEGFVSKEYITVN", "met"),
    ("HMITERVPVPDLTGMPLMEAIKTLNSSKLQYQVVGSVIEGDENRIIDQTPKPDIMVSEKSIVLLYLETYRG", "not met"),
    ("HMQQIAVDLSEFKPRLMRDMSSMLAGLYTHDLDLSSLDFSKVANFTFMFRGAIITGTLKMPKI", "met"),
]
